- Test system: CYP isoforms 1A2, 2B6, 2C8, 2C9, 2C19, 2D6, 3A4
- ASSAY_OVERVIEW: in vitro
- TEST_CONDITIONS: human
READOUT_TYPE: EC50

**Query** Looking for the measured EC50 of COC(=O)[C@H](CC(C)C)Nc1nc(Cl)nc(N[C@H]2CC[C@H](Nc3nc(Cl)nc(N[C@@H](CC(C)C)C(=O)OC)n3)CC2)n1 , can you help?
**Result** 4.96 to 37.8 µM

###

- ASSAY_OVERVIEW: in vitro
- TEST_CONDITIONS: male, Sprague-Dawley, rat, hepatocytes
READOUT_TYPE: hepatocyte CLint

**Query** GET /values?readout=hepatocyte CLint&item= COC(=O)[C@H](CC(C)C)Nc1nc(Cl)nc(N[C@H]2CC[C@H](Nc3nc(Cl)nc(N[C@@H](CC(C)C)C(=O)OC)n3)CC2)n1
**Result** < 6.4 µL/min/1e6 cells

###

- ASSAY_OVERVIEW: in vitro
- TEST_CONDITIONS: PAMPA, pH 7.4, PAMPA Papp (cm/S × 10^–6), pH 7.4, 5 h, room temperature
READOUT_TYPE: Papp

**Query** Quick one: Papp for COC(=O)[C@H](CC(C)C)Nc1nc(Cl)nc(N[C@H]2CC[C@H](Nc3nc(Cl)nc(N[C@@H](CC(C)C)C(=O)OC)n3)CC2)n1 [Compound 17] ?
**Result** < 0.023 ×10⁻⁶ cm/s

###

- TARGET_DESC: Human FL NPR-C (27–541)-10His-Flag (Homo sapiens)
- Sequence (P17342 27-541): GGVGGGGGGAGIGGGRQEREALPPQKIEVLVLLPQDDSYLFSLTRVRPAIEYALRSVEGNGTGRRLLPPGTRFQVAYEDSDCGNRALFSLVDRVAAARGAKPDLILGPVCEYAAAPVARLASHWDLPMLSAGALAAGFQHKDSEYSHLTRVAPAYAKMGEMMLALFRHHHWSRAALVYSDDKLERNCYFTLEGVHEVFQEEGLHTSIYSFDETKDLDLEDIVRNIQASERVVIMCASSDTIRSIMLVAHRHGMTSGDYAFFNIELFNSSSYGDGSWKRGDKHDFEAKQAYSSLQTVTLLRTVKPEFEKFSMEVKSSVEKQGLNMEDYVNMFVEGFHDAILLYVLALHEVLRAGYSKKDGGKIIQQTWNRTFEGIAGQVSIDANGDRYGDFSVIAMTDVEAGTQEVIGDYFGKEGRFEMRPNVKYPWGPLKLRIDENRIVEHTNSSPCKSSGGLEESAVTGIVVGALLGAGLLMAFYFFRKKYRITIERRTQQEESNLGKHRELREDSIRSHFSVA
- ASSAY_OVERVIEW: Surface plasmon resonance
- TEST_CONDITIONS: KD (μM), SPR, affinity model, 1:1 binding
READOUT_TYPE: Kd (µM)
I only need the number, in µM, no unit after it.

CC(=O)Nc1ccc(Nc2ncnc(N[C@H](CC(=O)OC(C)(C)C)Cc3ccccc3)n2)cc1 | 29.6

Moving on to another compound below.
**Query** Entry under review: CON(C)C(=O)[C@H](CC(C)C)Nc1ncnc(Nc2ccc(NC(C)=O)cc2)n1 . Reported Kd?
**Result** 144
